- system.under.test: URAT-1 transporter (Homo sapiens (Human), UniProt Q96S37)
- Sequence (Q96S37 other isoform, or with tags, fused parts or gaps): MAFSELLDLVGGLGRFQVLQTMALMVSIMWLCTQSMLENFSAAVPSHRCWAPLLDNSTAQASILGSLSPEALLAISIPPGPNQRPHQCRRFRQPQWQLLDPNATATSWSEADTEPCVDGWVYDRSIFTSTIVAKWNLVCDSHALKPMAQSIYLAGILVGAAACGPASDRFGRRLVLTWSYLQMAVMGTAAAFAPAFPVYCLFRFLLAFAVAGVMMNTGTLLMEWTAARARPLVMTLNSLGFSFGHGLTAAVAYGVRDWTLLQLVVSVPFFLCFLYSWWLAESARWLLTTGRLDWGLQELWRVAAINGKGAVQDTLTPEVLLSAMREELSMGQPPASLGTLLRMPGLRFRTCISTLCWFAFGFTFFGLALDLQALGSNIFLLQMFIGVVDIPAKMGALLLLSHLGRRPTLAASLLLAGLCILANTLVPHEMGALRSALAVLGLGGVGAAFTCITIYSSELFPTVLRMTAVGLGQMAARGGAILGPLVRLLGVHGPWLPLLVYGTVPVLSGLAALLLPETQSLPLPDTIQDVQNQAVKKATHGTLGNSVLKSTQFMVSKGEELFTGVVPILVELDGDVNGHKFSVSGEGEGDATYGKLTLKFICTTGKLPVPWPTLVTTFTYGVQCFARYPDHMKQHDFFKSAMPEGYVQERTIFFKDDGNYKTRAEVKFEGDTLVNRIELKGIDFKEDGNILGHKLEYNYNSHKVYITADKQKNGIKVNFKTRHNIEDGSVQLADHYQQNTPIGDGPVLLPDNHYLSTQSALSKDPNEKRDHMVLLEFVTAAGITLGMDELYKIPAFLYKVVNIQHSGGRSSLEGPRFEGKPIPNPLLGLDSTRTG
- assay.comment: URAT-1 inhibitor activity: [14C]-uric acid uptake in CHO-URAT1(L)GFP#8 (CHO#8) cells, scintillation proximity
- Type: cell-based
- measurement.conditions: inhibition of [14C]-uric acid (30 nM) uptake into CHO#8 cells; compound 0 to 10 μM; 4 parameter logistic fit
result.type: IC50 (µM)

Solved entries (count: 5):
N#Cc1cc(S(=O)(=O)Nc2ccc(F)cn2)ccc1Oc1ccc(Cl)c(Cl)c1 : 0.099
COc1ccc(Oc2ccc(S(=O)(=O)Nc3ccc(F)cn3)cc2C#N)cc1F : 0.038
N#Cc1cc(S(=O)(=O)Nc2ccc(F)cn2)ccc1Oc1ccc(F)c(Cl)c1 : 0.019
CCOc1cc(Cl)ccc1Oc1ccc(S(=O)(=O)Nc2ccc(F)cn2)cc1C#N : 0.123
N#Cc1ccnc(NS(=O)(=O)c2ccc(Oc3ccc(F)c(Cl)c3)c(C#N)c2)c1 : 0.126

P. N#Cc1cc(Cl)ccc1Oc1ccc(S(=O)(=O)Nc2ccc(F)cn2)cc1C#N
Q. N#Cc1cc(S(=O)(=O)Nc2ccc(F)cn2)ccc1Oc1ccc(F)c(F)c1F
Enquiry: Compare P and Q and name the one whose reported IC50 is smaller. // respond with label for picked entry
Return: Q
